Provenance of the data: ChEMBL document CHEMBL3351447

Exercise: for every item that follows, state its recorded log10(IC50).
Test system: HeLa
method_notes: Cytotoxicity against human HeLa cells after 72 hrs by MTT assay
Type: functional, cell-based
Heads up: the numbers are on a log10 scale; they represent IC50 in µM.

Q) For O=C1[C@H]2Cc3c([nH]c4ccccc34)[C@@H](c3cccc(O)c3)N2C(=O)N1c1cccc(C(F)(F)F)c1 , what is its reported log10(IC50)?
A) 1.13

Q) For COc1cc([C@@H]2c3[nH]c4ccccc4c3C[C@@H]3C(=O)N(c4cccc(C(F)(F)F)c4)C(=O)N23)ccc1O , what is its reported log10(IC50)?
A) 1.19

Q) For O=C1[C@@H]2Cc3c([nH]c4ccccc34)[C@@H](c3cccc(O)c3)N2C(=O)N1CCCl , what is its reported log10(IC50)?
A) 1.78

Q) For O=C1[C@H]2Cc3c([nH]c4ccccc34)[C@@H](c3cccc(O)c3)N2C(=O)N1Cc1ccc(Br)cc1 , what is its reported log10(IC50)?
A) 1.05

Q) For COc1cc([C@@H]2c3[nH]c4ccccc4c3C[C@@H]3C(=O)N(Cc4ccc(Br)cc4)C(=O)N23)ccc1O , what is its reported log10(IC50)?
A) 1.93

Q) For O=C1[C@H]2Cc3c([nH]c4ccccc34)[C@@H](c3cccc(O)c3)N2C(=O)N1c1ccc(Cl)cc1 , what is its reported log10(IC50)?
A) 1.08

Q) For O=C1[C@H]2Cc3c([nH]c4ccccc34)[C@@H](c3cccc(O)c3)N2C(=O)N1CCCl , what is its reported log10(IC50)?
A) 1.48

Q) For COc1cc([C@@H]2c3[nH]c4ccccc4c3C[C@H]3C(=O)N(c4ccc(Cl)cc4)C(=O)N23)ccc1O , what is its reported log10(IC50)?
A) 1.48

Q) For O=C1[C@@H]2Cc3c([nH]c4ccccc34)[C@@H](c3cccc(O)c3)N2C(=O)N1Cc1ccc(Br)cc1 , what is its reported log10(IC50)?
A) 1.39

Q) For COc1cc([C@@H]2c3[nH]c4ccccc4c3C[C@H]3C(=O)N(Cc4ccc(Br)cc4)C(=O)N23)ccc1O , what is its reported log10(IC50)?
A) 1.92

Q) For COc1cc([C@@H]2c3[nH]c4ccccc4c3C[C@@H]3C(=O)N(c4ccc(Cl)cc4)C(=O)N23)ccc1O , what is its reported log10(IC50)?
A) 1.49

Q) For O=C1[C@@H]2Cc3c([nH]c4ccccc34)[C@@H](c3cccc(O)c3)N2C(=O)N1c1ccc(Cl)cc1 , what is its reported log10(IC50)?
A) 0.81

Q) For COc1cc([C@@H]2c3cc4c(cc3[C@@H](O[C@@H]3O[C@@H]5CO[C@@H](C)O[C@H]5[C@H](O)[C@H]3O)[C@H]3COC(=O)[C@H]23)OCO4)cc(OC)c1O [ETOPOSIDE] , what is its reported log10(IC50)?
A) 0.67

Q) For COc1cc([C@@H]2c3[nH]c4ccccc4c3C[C@@H]3C(=O)N(CCCl)C(=O)N23)ccc1O , what is its reported log10(IC50)?
A) 1.52

Q) For COc1cc([C@@H]2c3[nH]c4ccccc4c3C[C@H]3C(=O)N(CCCl)C(=O)N23)ccc1O , what is its reported log10(IC50)?
A) 1.70

Q) For O=C1[C@@H]2Cc3c([nH]c4ccccc34)[C@@H](c3cccc(O)c3)N2C(=O)N1c1cccc(C(F)(F)F)c1 , what is its reported log10(IC50)?
A) 1.50

Q) For COc1cc([C@@H]2c3[nH]c4ccccc4c3C[C@H]3C(=O)N(c4cccc(C(F)(F)F)c4)C(=O)N23)ccc1O , what is its reported log10(IC50)?
A) 1.06
